Entries and their MTD at 7 days values follow.
METHOD: Acute toxicity, maximum tolerated dose (MTD)
PARTICULARS: Swiss CD1, mouse, in vivo, iv
Starred links: 1 amine or outer side, 2 acyl side, 3 side chain; linkers in the order of their positions; H or OH if unused. Positions of bridges follow the written chain, without caps; N, C: chain ends. Non-standard residues stand in square brackets, D forms with d. Residues, ends and D or L forms follow the SMILES beside them. ξ: configuration not given here. *: point of attachment. ξAbu(βξ-NH2) = CC(N[*:3])C(N[*:1])C(=O)[*:2]; ξAsp(βξ-Me) = CC(C(=O)O)C(N)C(=O)O; X2 = O=C(CCc1ccc(N[*:1])cc1)[*:2]; X1 = O=C(Cc1ccc(N[*:1])cc1)[*:2]; ξAbu(3ξ-NH2) = CC(N)C(N)C(=O)O; Lauroyl = CCCCCCCCCCCC(=O)*; Pip = O=C(O)[CH]1CCCCN1

Worked examples, 2 compounds total:
- COMPOUND: "CCCCCCCCCCCC(=O)Nc1ccc(CC(=O)NC(CC(=O)O)C(=O)NC2C(=O)N3CCCCC3C(=O)NC(C(C)C(=O)O)C(=O)NC(CC(=O)O)C(=O)NCC(=O)NC(CC(=O)O)C(=O)NCC(=O)NC(C(C)N)C(=O)NC(C(C)C)C(=O)N3CCCC3C(=O)NC2C)cc1 (stereo not drawn) [Compound 119, C12-(p-Apa)-Amphomycin] (Lauroyl-[X1]D[ξAbu(βξ-NH2)][Pip][ξAsp(βξ-Me)]DGDG[ξAbu(3ξ-NH2)]VP; lactam 3-C; configuration not given here)"
  READOUT_LABEL: "MTD at 7 days"
  RESULT: "50 to 200 mg/kg"
- COMPOUND: "CC(=O)Nc1ccc(C(=O)NC(CC(=O)O)C(=O)NC2C(=O)N3CCCCC3C(=O)NC(C(C)C(=O)O)C(=O)NC(CC(=O)O)C(=O)NCC(=O)NC(CC(=O)O)C(=O)NCC(=O)NC(C(C)N)C(=O)NC(C(C)C)C(=O)N3CCCC3C(=O)NC2C)cc1 (stereo not shown)"
  READOUT_LABEL: "MTD at 7 days"
  RESULT: "50 to 200 mg/kg"

Enquiry: // lookup MTD at 7 days for CCCCCCCCCCCC(=O)Nc1ccc(C(=O)NC(CC(=O)O)C(=O)NC2C(=O)N3CCCCC3C(=O)NC(C(C)C(=O)O)C(=O)NC(CC(=O)O)C(=O)NCC(=O)NC(CC(=O)O)C(=O)NCC(=O)NC(C(C)NC(=O)CCN)C(=O)NC(C(C)C)C(=O)N3CCCC3C(=O)NC2C)cc1 (stereo not shown)
Return: 200 to 400 mg/kg

Enquiry: // lookup MTD at 7 days for CCCCCCCCCCCCCCC(=O)NC(CC(=O)O)C(=O)NC1C(=O)N2CCCCC2C(=O)NC(C(C)C(=O)O)C(=O)NC(CC(=O)O)C(=O)NCC(=O)NC(CC(=O)O)C(=O)NCC(=O)NC(C(C)NC(=O)CNC(=O)[C@@H](N)CCCCN)C(=O)NC(C(C)C)C(=O)N2CCCC2C(=O)NC1C (stereo partly shown)
Return: 200 to 400 mg/kg

Enquiry: // lookup MTD at 7 days for CCCCCCCCCCCCCCC(=O)NC(CC(=O)O)C(=O)NC1C(=O)N2CCCCC2C(=O)NC(C(C)C(=O)O)C(=O)NC(CC(=O)O)C(=O)NCC(=O)NC(CC(=O)O)C(=O)NCC(=O)NC(C(C)NC(=O)CN(C)C(=O)[C@@H](N)CCCCN)C(=O)NC(C(C)C)C(=O)N2CCCC2C(=O)NC1C (stereo partly shown)
Return: 200 to 400 mg/kg

Enquiry: // lookup MTD at 7 days for CCCCCCCCCCCC(=O)Nc1ccc(CCC(=O)NC(CC(=O)O)C(=O)NC2C(=O)N3CCCCC3C(=O)NC(C(C)C(=O)O)C(=O)NC(CC(=O)O)C(=O)NCC(=O)NC(CC(=O)O)C(=O)NCC(=O)NC(C(C)N)C(=O)NC(C(C)C)C(=O)N3CCCC3C(=O)NC2C)cc1 (stereo not drawn) [Compound 108, C12-(p-Aminophenylpropanoyl)-Amphomycin] (Lauroyl-[X2]D[ξAbu(βξ-NH2)][Pip][ξAsp(βξ-Me)]DGDG[ξAbu(3ξ-NH2)]VP; lactam 3-C; configuration not given here)
Return: 50 to 200 mg/kg

Enquiry: // lookup MTD at 7 days for CCCCCCCCCCCCCCNC(=O)NC(CC(=O)O)C(=O)NC1C(=O)N2CCCCC2C(=O)NC(C(C)C(=O)O)C(=O)NC(CC(=O)O)C(=O)NCC(=O)NC(CC(=O)O)C(=O)NCC(=O)NC(C(C)NC(=O)CCN)C(=O)NC(C(C)C)C(=O)N2CCCC2C(=O)NC1C (stereo not shown)
Return: 200 to 400 mg/kg
